Sourced from paper PMC5094563

Target: p110α (Homo sapiens)
Sequence (P42336 109-1068): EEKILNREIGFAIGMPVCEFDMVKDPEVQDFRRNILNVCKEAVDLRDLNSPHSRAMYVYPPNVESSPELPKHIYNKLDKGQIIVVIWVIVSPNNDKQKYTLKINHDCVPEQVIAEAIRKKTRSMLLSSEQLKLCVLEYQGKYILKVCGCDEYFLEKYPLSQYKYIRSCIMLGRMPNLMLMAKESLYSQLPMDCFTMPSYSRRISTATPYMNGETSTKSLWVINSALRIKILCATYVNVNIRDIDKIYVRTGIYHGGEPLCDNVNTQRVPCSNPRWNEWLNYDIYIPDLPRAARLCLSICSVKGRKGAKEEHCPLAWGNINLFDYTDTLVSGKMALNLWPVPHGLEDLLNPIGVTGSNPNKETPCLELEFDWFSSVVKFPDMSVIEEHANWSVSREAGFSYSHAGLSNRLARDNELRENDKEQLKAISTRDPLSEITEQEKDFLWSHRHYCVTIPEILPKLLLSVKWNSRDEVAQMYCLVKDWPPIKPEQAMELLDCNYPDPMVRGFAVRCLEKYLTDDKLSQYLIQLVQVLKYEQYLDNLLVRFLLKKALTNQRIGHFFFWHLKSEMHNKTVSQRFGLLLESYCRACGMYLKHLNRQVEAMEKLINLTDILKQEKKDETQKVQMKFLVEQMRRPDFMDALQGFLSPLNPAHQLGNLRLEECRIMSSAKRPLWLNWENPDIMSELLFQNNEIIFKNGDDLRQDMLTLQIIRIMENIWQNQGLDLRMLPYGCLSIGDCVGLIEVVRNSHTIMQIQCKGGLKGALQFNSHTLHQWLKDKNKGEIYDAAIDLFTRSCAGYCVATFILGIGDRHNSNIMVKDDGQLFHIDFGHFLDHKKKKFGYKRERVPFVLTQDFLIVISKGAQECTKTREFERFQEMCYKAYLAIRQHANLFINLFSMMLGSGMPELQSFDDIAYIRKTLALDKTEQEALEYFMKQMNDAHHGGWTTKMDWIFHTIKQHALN
Experiment: Biochemical IC50 assay
property_label: pIC50
The value called pIC50 is obtained by taking minus log10 of the concentration in mol/L.

Incoming: Please list pIC50 recorded for the compound CC(C)COc1c(OCCCN2CCOCC2)ccc2c1N=C(NC(=O)c1cccnc1)N1CCN=C21 [Compd 34 c]
Outgoing: 7.99

Incoming: Please list pIC50 recorded for the compound COc1c(OCCCN2CCOCC2)ccc2c1N=C(NC(=O)c1sc(C)nc1C)N1CCN=C21 [Compd 39 b]
Outgoing: 8.80

Incoming: Please list pIC50 recorded for the compound COc1c(O)ccc2c1N=C(NC(=O)c1cccnc1)N1CCN=C21 [Compd 31]
Outgoing: 8.06

Incoming: Please list pIC50 recorded for the compound CCOc1ccc2c(c1OC)N=C(NC(=O)c1cccnc1)N1CCN=C21 [Compd 32 b]
Outgoing: 8.44

Incoming: Please list pIC50 recorded for the compound COc1c(OCCN2CCOCC2)ccc2c1N=C(NC(=O)c1cccnc1)N1CCN=C21 [Compd 32 h]
Outgoing: 9.05

Incoming: Please list pIC50 recorded for the compound COc1c(OCc2ccccc2)ccc2c1N=C(NC(=O)c1cccnc1)N1CCN=C21 [Compd 30]
Outgoing: 8.21

Incoming: Please list pIC50 recorded for the compound COc1c(OCCCN2CCOCC2)ccc2c1N=C(NC(=O)c1ccc(N)nc1)N1CCN=C21 [Compd 39 e]
Outgoing: 9.22

Incoming: Please list pIC50 recorded for the compound COc1c(OCCCN2CCOCC2)ccc2c1N=C(NC(=O)c1ccc3c(c1)OCO3)N1CCN=C21 [Compd 39 a]
Outgoing: 7.68

Incoming: Please list pIC50 recorded for the compound COc1c(OCCCN2CCOCC2)ccc2c1N=C(NC(=O)c1cnc(N)nc1C)N1CCN=C21 [Compd 39 j]
Outgoing: 9.40
